These measurements were taken from ChEMBL document CHEMBL5233266.

- Tgt: Acetylcholinesterase (Homo sapiens)
- Sequence (P22303 whole entry): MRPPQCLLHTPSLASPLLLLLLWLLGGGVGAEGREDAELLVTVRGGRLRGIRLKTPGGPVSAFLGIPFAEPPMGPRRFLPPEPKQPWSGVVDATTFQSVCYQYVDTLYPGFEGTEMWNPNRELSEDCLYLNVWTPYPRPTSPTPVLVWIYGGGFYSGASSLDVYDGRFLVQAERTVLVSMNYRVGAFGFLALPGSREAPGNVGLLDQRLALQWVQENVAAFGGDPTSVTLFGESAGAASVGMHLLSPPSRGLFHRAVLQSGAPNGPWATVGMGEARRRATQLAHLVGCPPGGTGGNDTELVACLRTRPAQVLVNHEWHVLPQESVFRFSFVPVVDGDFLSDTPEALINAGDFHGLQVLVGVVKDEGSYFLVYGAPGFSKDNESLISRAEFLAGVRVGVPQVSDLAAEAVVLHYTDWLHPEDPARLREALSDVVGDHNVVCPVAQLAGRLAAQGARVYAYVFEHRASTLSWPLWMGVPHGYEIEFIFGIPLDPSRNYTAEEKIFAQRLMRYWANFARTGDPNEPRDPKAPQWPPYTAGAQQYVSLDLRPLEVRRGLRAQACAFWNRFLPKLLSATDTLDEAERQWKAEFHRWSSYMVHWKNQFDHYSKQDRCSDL
- Assay comment: Inhibition of AChE (unknown origin) using acetylthiocholine iodide as substrate incubated for 20 mins followed by substrate addition by Ellman's method
Readout label: pIC50
API: returns pIC50 as number; meaning -log10 of concentration in mol/L.

Could you share which pIC50 value was measured for O=C1c2ccccc2-[n+]2ccc3c([nH]c4ccccc43)c21 [FASCAPLYSIN] ?
5.82

Could you share which pIC50 value was measured for O=C(CN1CCCCC1)Nc1ccc2nc3c4[nH]c5ccccc5c4ccn3c(=O)c2c1 ?
8.00

Could you share which pIC50 value was measured for COC(=O)C1=CO[C@@H](C)[C@H]2C[n+]3ccc4c([nH]c5ccccc54)c3C[C@H]12 ?
6.11

Could you share which pIC50 value was measured for CN1c2ccc(OCc3ccccc3)cc2C(=O)N2CCc3c([nH]c4ccccc34)C21 (stereo not given) ?
5.52

Could you share which pIC50 value was measured for C=C[C@H]1[C@@H](/C(=C/O)C(=O)OC)C[C@H]2c3[nH]c4ccccc4c3CCN2[C@H]1O[C@@H]1O[C@H](CO)[C@@H](O)[C@H](O)[C@H]1O ?
5.72

More entries:
Could you share which pIC50 value was measured for O=C(CCN1CCCC1)Nc1ccc2c(c1)CN1CCc3c([nH]c4ccccc34)C1=N2 ?
7.54

Could you share which pIC50 value was measured for c1ccc2c(c1)CN1CCc3c([nH]c4ccccc34)C1=N2 ?
5.47

Could you share which pIC50 value was measured for C=C[C@H]1C[N+]2=C(C[C@@H]1/C(=C\OC)C(=O)OC)c1[nH]c3cccc(OC)c3c1CC2 ?
5.39

Could you share which pIC50 value was measured for Cc1cc2cc3n(c(=O)c2cn1)CCc1c-3[nH]c2ccccc12 ?
4.66
